Target: T1, hVISTA-ECD 6-His tag (human, UniProt Q9H7M9 33-193)
T1 construct: also called monovalent hVISTA-ECD; human VISTA
T1 sequence (Q9H7M9 other isoform, or with tags, fused parts or gaps limits assumed): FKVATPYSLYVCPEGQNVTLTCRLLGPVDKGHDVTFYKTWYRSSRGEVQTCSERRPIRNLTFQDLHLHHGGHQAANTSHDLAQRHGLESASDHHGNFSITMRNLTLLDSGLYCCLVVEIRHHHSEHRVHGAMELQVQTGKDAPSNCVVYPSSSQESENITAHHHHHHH
Test: SPR 37 C, Ab on Protein A, pH 6.0

{"binder": "P1-077861 (P1-068744 H50I E102Y) (antibody, V domains shown) VH: QVQLVESGGGVVQPGRSLRLSCAASGFTFSEYAMHWVRQAPGKGLEWVAIIWYDGSNKYEADSVKGRFTISRDNSKNTLYLQMNSLRAEDTAVYYCARDSGFYESYYFDYWGQGTLVTVSS VL: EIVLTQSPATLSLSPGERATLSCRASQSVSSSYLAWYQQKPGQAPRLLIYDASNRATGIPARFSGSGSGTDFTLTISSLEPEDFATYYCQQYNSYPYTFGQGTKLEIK", "kon": "870000 M⁻¹ s⁻¹"}
